These data points were gathered from ChEMBL document CHEMBL1201862.

Test system: Hs-578T
Assay: NCI tumour cell line growth inhibition, 48 h
Calls of active or inactive are those of the source. Cut-off read from the data, not from the text of the source: active = GI50 up to about 1.1 µM and inactive = higher.

{"columns": ["compound", "GI50"],
 "data": [
  ["Cc1cc2c(c(=O)o1)C1=S(SC(c3ccccc3)=C1)S2 (configuration not stated)", "41.2 µM (inactive)"],
  ["CC1(C)OP(=O)(c2ccccc2)C=C1Sc1ccc([N+](=O)[O-])cc1[N+](=O)[O-] (configuration not stated)", "> 100 µM (inactive)"],
  ["C1CC2CN(CCCN3CCOCC3)C(C1)O2 (configuration not stated)", "> 100 µM (inactive)"],
  ["Cc1ccc2c3ccc4c(c3n(C)c2c1)C(=O)C=CC4=O", "> 10 µM (inactive)"],
  ["CCCSC1=N/C(=C\\c2ccco2)C(=O)N1", "> 100 µM (inactive)"],
  ["CCOC(=O)c1ccc(NCC#CCN2CCOCC2)cc1", "> 100 µM (inactive)"],
  ["COC(=O)/C(C)=N/N=C(\\S)SC", "28.8 µM (inactive)"],
  ["C=CC1(CBr)CCC(C(C)(C)Br)O1 (configuration not stated)", "12.6 µM (inactive)"],
  ["COCOc1cc(OC)ccc1C=O", "14.8 µM (inactive)"],
  ["CCOC(=O)c1c(NC(=O)c2cccs2)sc2c1CCCC2", "27.6 µM (inactive)"],
  ["CN(CCCCN1CCCC1)CCCN(C)C(=O)Cc1ccc(Cl)c(Cl)c1", "20.6 µM (inactive)"],
  ["N#C[C@H](c1nc2ccccc2[nH]1)c1nc2ccccc2nc1Cl", "2.05 µM (inactive)"]
]}

====

System: SNB-19
Test: NCI tumour cell line growth inhibition, 48 h
Active and inactive are the calls of the source. Cut-off read from the data, not from the text of the source: active = GI50 up to about 1.1 µM and inactive = higher.
Labels: active, inactive

{"columns": ["molecule", "category"],
 "data": [
  ["COc1cc(C(c2cccc3ccccc23)N2C(=O)CCC2C(=O)NCc2ccccc2)cc(OC)c1OC (stereo unspecified)", "inactive"],
  ["c1csc(-c2cscc2-c2ccsc2)c1", "inactive"],
  ["[O-]c1c2cc(-[n+]3c(-c4ccccc4)cc(-c4ccccc4)cc3-c3ccccc3)cc1CO[C@@H](c1ccccc1)[C@H](c1ccccc1)OCc1cccc(n1)CO[C@@H](c1ccccc1)[C@H](c1ccccc1)OC2", "active"],
  ["O=C1C(NCCF)=C(Cl)C(=O)c2ncccc21", "inactive"],
  ["CCN1CSC(=S)N(CC)C1", "inactive"],
  ["CC1(C)OCC(C2OC(On3nnc4ccc(Cl)cc43)C3OC(C)(C)OC23)O1 (stereo unspecified)", "inactive"],
  ["COc1ccc(/C=C2\\OC(=O)C(Cl)=C2c2ccc(OC)cc2)cc1", "inactive"],
  ["Cc1cccc2nc3cccc(C(=O)NCCN(C)C)c3nc12", "active"],
  ["CCCCN(CCCC)CC(C(C)=O)C(c1ccccc1)c1c(O)c2ccccc2oc1=O (stereo unspecified)", "inactive"],
  ["CN1CCN2c3ccccc3CC(C#N)(C#N)C2C1 (stereo unspecified)", "inactive"],
  ["CSc1nc(NC2OC(CO)C(O)C(O)C2O)c(N)c(=O)[nH]1 (stereo unspecified)", "inactive"]
]}

====

System: LOX IMVI
Assay: NCI tumour cell line growth inhibition, 48 h
Calls of active or inactive are those of the source. Rule as the data show it: active = GI50 up to about 1.1 µM and inactive = higher.
Labels: 1 for active, -1 for inactive

{"columns": ["compound", "category"],
 "data": [
  ["N#CC(C#N)C(c1ccccc1)c1ccccc1", -1],
  ["CC1(C)CCC[C@@]2(C)C1CCC1(C)C(CCc3ccoc3)/C(=C/OS(=O)(=O)O)CCC12 (stereo partly specified)", -1],
  ["Cc1ccc2[nH]c3[nH]c(=O)[nH]c(=O)c3c2c1", -1],
  ["CC#CC#C/C=C1/O[C@]2(CCC(OC(C)=O)CO2)[C@@H]2O[C@H]12 (stereo partly specified)", -1],
  ["CC(=O)N(C)CCc1c[nH]c2ccccc12", -1],
  ["O=C(c1ccc(Cl)c(Cl)c1)N(C(=O)N1CCN(c2ccccc2)CC1)S(=O)(=O)c1ccccc1", -1],
  ["CN1C(=O)C2C(=O)N(Cc3ccccc3)CC(=O)N2c2cccnc21 (stereo unspecified)", -1],
  ["c1ccc2c(OCC3CO3)ccc(OCC3CO3)c2c1 (stereo unspecified)", 1],
  ["C[C@@H]1C[C@H]2OC(=O)[C@@]3(C)CCC[C@@](C)([C@@H]23)[C@@]1(O)CCc1ccoc1", -1],
  ["O=C(Nc1ccc(Cl)cc1Cl)OC(Cn1cncn1)c1ccc(Cl)cc1Cl (stereo unspecified)", -1],
  ["COC(=O)/C=c1/c2ccccc2n2nc3ccccc3c12", -1],
  ["CCOC(=O)C1S/C(=N\\c2ccc(OC)c(OC)c2)N=C1C (stereo unspecified)", -1],
  ["Cc1cc(NCCCCCCNc2cc(C)nc3ccc(Cl)cc23)c2cc(Cl)ccc2n1", -1],
  ["COc1ccc2nccc(C3OC(=O)N4CCC(=O)CC34)c2c1 (stereo unspecified)", -1],
  ["Cc1ccc(-c2cc(C(F)(F)F)nn2-c2ccc(S(N)(=O)=O)cc2)cc1 [CELECOXIB]", -1],
  ["CC1CC(c2cccc3c2OCO3)=Nc2ccccc2S1 (stereo unspecified)", -1],
  ["O=C(CC(CC(=O)Oc1c(Br)cc(Br)cc1C(=O)O)C(=O)Oc1c(Br)cc(Br)cc1C(=O)O)Oc1c(Br)cc(Br)cc1C(=O)O", -1],
  ["CC1(C)C2CCC1(C)C(OC(=O)/C=C/C(=O)OC1CC3CCC1(C)C3(C)C)C2 (stereo unspecified)", -1],
  ["COc1ccc2c(c1)C=C(C(C)(C)C)NS2(=O)=O", -1],
  ["C[S+](C)C1(c2ccccc2)C(=O)c2ccccc2C1=O", -1],
  ["CC(=O)NC1CCC(NC(=O)OC(C)(C)C)C(NC(=O)OC(C)(C)C)C1 (stereo unspecified)", -1]
]}
